Origin of the recorded values: the supplement of paper PMC13380429

# Test system: Caco-2
# Assay overview: cell viability relative to DMSO; higher = less toxic
# Condition context: 72 h; 10000 nM
Mark yes for cell viability under 80%, no if at or over.

INSERT INTO results (compound, system, group) VALUES
  ('Oc1ccc2c(c1)CC[C@H](c1ccccc1)[C@@H]2c1ccc(OCCN2CCCC2)cc1', 'Caco-2', 'yes'),
  ('c1cc(-c2cnn3cc(-c4ccc(OCCN5CCCCC5)cc4)cnc23)ccn1', 'Caco-2', 'yes'),
  ('O=C(Nc1cccc(C(F)(F)F)c1)Nc1cc(S(=O)(=O)NC2CC2)ccc1-c1ccsc1', 'Caco-2', 'no'),
  ('C[N+]1(C)[C@@H]2CC[C@H]1C[C@@H](OC(=O)C(O)c1ccccc1)C2 (stereo partly specified) [homatropine-methylbromide]', 'Caco-2', 'no'),
  ('O=C(NCC1(N2CCN(c3ccccc3)CC2)CCOCC1)c1cccnc1Sc1ccccc1', 'Caco-2', 'no');

Query: Find out if reported cell viability for Cc1nc2ccc(Oc3ccc(F)cc3)cc2c(=O)n1C[C@H]1CCCN(C(C)C)C1 is less than 80%
Response: no

Query: Find out if reported cell viability for CC(=O)CC(=O)O [lithium-acetoacetate] is less than 80%
Response: no

Query: Find out if reported cell viability for COC(=O)/C=C/c1cc(O)ccc1O is less than 80%
Response: yes

Query: Find out if reported cell viability for O=C1NC(=O)/C(=C/c2ccc3nccc(-c4ccncc4)c3c2)S1 is less than 80%
Response: yes

Query: Find out if reported cell viability for C/C(=C\C(=O)OCCCCCCCCC(=O)O)C[C@@H]1OC[C@H](C[C@@H]2O[C@H]2[C@@H](C)[C@H](C)O)[C@@H](O)[C@H]1O is less than 80%
Response: no

* * *

# Test system: Caco-2
# Assay overview: cell viability relative to DMSO; higher = less toxic
# Condition context: 72 h; 1000 nM
Property name: cell viability (%)
Write the number in % without appending the unit.

INSERT INTO assay_data (compound, property_name, value_unit, reported) VALUES
  ('COc1cc(C(=O)OCCCN2CCCN(CCCOC(=O)c3cc(OC)c(OC)c(OC)c3)CC2)cc(OC)c1OC', 'cell viability', '%', 97.1),
  ('CC[N+](CC)(CCNC(=O)C(=O)NCC[N+](CC)(CC)Cc1ccccc1Cl)Cc1ccccc1Cl', 'cell viability', '%', 93.9),
  ('CCOc1ccc2nc3cc(N)ccc3c(N)c2c1 [ethacridine-lactate-monohydrate]', 'cell viability', '%', 110),
  ('Nc1ncnc2c1c(-c1cccc(OCc3ccccc3)c1)cn2C1CC(CN2CCCC2)C1 (stereo in doubt)', 'cell viability', '%', 74.6),
  ('NS(=O)(=O)c1cc(-c2nnn[nH]2)c(NCc2cccs2)cc1Cl [azosemide]', 'cell viability', '%', 92.4);

The compound listed as CC1(C)NC(=O)N(c2ccc([N+](=O)[O-])c(C(F)(F)F)c2)C1=O [nilutamide] shows cell viability equal to 107

The compound listed as CN[C@@H](C)C(=O)N[C@H](C(=O)N1CCC[C@H]1C(=O)N[C@H]1c2ccccc2C[C@H]1OCC#CC#CCO[C@@H]1Cc2ccccc2[C@@H]1NC(=O)[C@@H]1CCCN1C(=O)[C@@H](NC(=O)[C@H](C)NC)C1CCCCC1)C1CCCCC1 shows cell viability equal to 93.4
